Cited source: ChEMBL document CHEMBL4190346

test system: MCF7; test: Cytotoxicity against human MCF7 cells assessed as reduction in cell viability using compound addition to cell culture cells in log phase of growth and incubated for 48 hrs by MTT assay; type: functional, cell-based; conditions: Homo sapiens, MCF7, 48 h; read-out: IC50
Quantity Kind: IC50 (nM)
Report as a plain number; the unit nM is understood.

[[record]]
record_smiles = "CCC(=O)OCC1=C(C)C[C@H]([C@@H](C)[C@H]2CC[C@H]3[C@@H]4C[C@H]5O[C@]56[C@@H](OC(=O)CC)C=CC(=O)[C@]6(C)[C@H]4CC[C@]23C)OC1=O"
recorded_value = 1100


Query :: // fetch MCF7 IC50 for CCCC(=O)OCC1=C(C)C[C@H]([C@@H](C)[C@H]2CC[C@H]3[C@@H]4C[C@H]5O[C@]56C(=O)C=CC(=O)[C@]6(C)[C@H]4CC[C@]23C)OC1=O
Result :: 2800
